test: NCI Yeast Anticancer Drug Screen. Data for the bub3 strain (AID 167); details: S. cerevisiae bub3 mutant strain, at 50.0 µM
The panel holds about 79,000 compounds, 15% with a hit somewhere; the sample as a whole holds those more often. Active and inactive are the calls of the source. No stated cut-off is given here; in the data, active means growth inhibition above about 70%; inactive means the rest.
Labels: active, inactive

{"molecule": "Nc1ccccc1C(=O)CCc1c[nH]c2ccccc12", "classification": "inactive"}
{"molecule": "COC(=O)Oc1nn(C(=O)OC)c(=O)c2ccccc12 (tested in a mixture with another compound)", "classification": "inactive"}
{"molecule": "C/C=C/Cc1ccccc1O", "classification": "inactive"}
{"molecule": "CCN(CC)C1Oc2cc3c(cc2C(c2cccc(OC)c2OC)C1C)OCO3 (stereo not drawn)", "classification": "inactive"}
{"molecule": "Cc1cc(Cl)ccc1OCCCC(=O)NC(Cc1ccccc1)C(=O)O (stereo not drawn)", "classification": "inactive"}
{"molecule": "N#C/C(N)=C(/C#N)N=Cc1ccccc1", "classification": "inactive"}
{"molecule": "O=C(Cc1ccccc1)NN1C(=O)C(Cl)C1c1cc(Br)ccc1O (stereo not drawn)", "classification": "inactive"}
{"molecule": "CCCCCCCCCCCCCCCC(=O)OC/C=C/COC(=O)c1ccccc1", "classification": "inactive"}
{"molecule": "COC(=O)c1ccc(Cl)cc1", "classification": "inactive"}
{"molecule": "COc1ccc2c(ccc[n+]2CC(=O)c2ccc(Cl)cc2)c1", "classification": "inactive"}
{"molecule": "COc1cccc(NC(=O)CC(=O)NN2C(=O)/C(=C/c3ccc(N(CCC#N)CCC#N)cc3)N=C2c2cc([N+](=O)[O-])ccc2Cl)c1", "classification": "inactive"}
{"molecule": "O=C(O)c1cc2c(c3c1CCCC3)CCC1CCCC21 (stereo not drawn)", "classification": "inactive"}
{"molecule": "CC(C)CCC[C@@H](C)[C@H]1CC[C@H]2C3=CC=C4C[C@H](OC(=O)c5ccccc5)CC[C@]4(C)[C@H]3CC[C@]12C", "classification": "inactive"}
{"molecule": "O=C(NCCN1CCCC1)NC1CCCCC1", "classification": "inactive"}
{"molecule": "COc1ccc(C(=O)CC2=NC3NN(c4ccccc4)C(=O)C3=C2CC(=O)c2ccc(OC)cc2)cc1 (stereo not drawn)", "classification": "inactive"}
{"molecule": "N#CC(c1ccccc1)N1CCCN(C(C#N)c2ccccc2)C1c1ccccc1O (stereo not drawn)", "classification": "inactive"}
{"molecule": "O=C(O)c1cc(-c2c(Cl)cccc2Cl)nc2cc3ccccc3cc12", "classification": "inactive"}
{"molecule": "CC1CCCC(=O)CCC1", "classification": "inactive"}
{"molecule": "O=[N+]([O-])c1ccc(N/N=C/c2ccc(CO)cc2)c([N+](=O)[O-])c1", "classification": "inactive"}
{"molecule": "O=[N+]([O-])c1ccc(N=NNc2ccc([N+](=O)[O-])cc2)cc1", "classification": "inactive"}
{"molecule": "O=C1ON(c2ccccc2)C(c2cccc(Cl)c2)N1c1ccccc1 (stereo not drawn)", "classification": "inactive"}
{"molecule": "CCCN(CCC)CC(O)CN(CCC)CCC", "classification": "inactive"}
{"molecule": "O=C(O)C(Cc1ccccc1)c1ccc(Cl)cc1 (stereo not drawn)", "classification": "inactive"}
{"molecule": "ClCC1=NC2C(Cl)C(Cl)C(Cl)C(Cl)C2N1 (stereo not drawn)", "classification": "active"}
{"molecule": "CCCc1cc(=O)oc2c3c(c4c(c12)OC(C)(C)C=C4)O[C@H](C)[C@@H](C)C3O (stereo partly drawn)", "classification": "inactive"}
{"molecule": "COc1ccc(CNc2nc3ccc(C(F)(F)F)cc3nc2-c2ccccc2)cc1OC", "classification": "inactive"}
{"molecule": "COc1cc([C@H]2Oc3cc([C@H]4Oc5cc(O)cc(O)c5C(=O)[C@@H]4O)ccc3O[C@@H]2CO)ccc1O", "classification": "inactive"}
{"molecule": "COC(=O)/C(=N\\NC(N)=O)C(C#N)c1ccccc1 (stereo not drawn)", "classification": "inactive"}
{"molecule": "CC1Cc2ccccc2C2=C3CC=CCC3C3C(=O)OC(=O)C3C21 (stereo not drawn)", "classification": "inactive"}
{"molecule": "O=C(CCBr)Nc1ccccc1", "classification": "inactive"}
{"molecule": "CC[n+]1c(COCCOc2ccccc2)sc2cc3c(cc21)OCO3", "classification": "inactive"}
{"molecule": "c1cnc2[nH]cnc2n1", "classification": "inactive"}
{"molecule": "O=c1[nH]cnc2nn(C3OC(CO)C(O)C3O)nc12 (stereo not drawn)", "classification": "inactive"}
{"molecule": "C(=C\\P(c1ccccc1)c1ccccc1)/P(/C=C/P(c1ccccc1)c1ccccc1)c1ccccc1", "classification": "inactive"}
{"molecule": "O=C(O)C1[N-]CCNC1C(=O)O.[O]=[V][OH] (stereo not drawn)", "classification": "inactive"}
{"molecule": "COc1cccc(-c2nc(-c3cnccn3)n(C3OC(CO)C(O)C3O)n2)c1 (stereo not drawn)", "classification": "inactive"}
{"molecule": "CC(=O)NNC(=S)N/C=C(\\C#N)C(=O)c1ccc2ccccc2c1", "classification": "inactive"}
{"molecule": "CNC(=O)c1ccccc1N", "classification": "inactive"}
